Molecular target: T1, human Gro-gamma (human, UniProt P19876 35-107)
T1 construct: also called Gro-γ; CXCL3
Assay: TRFIA, chemokine coated on plate, europium anti-human IgG detection; antibody concentration not given
endpoint: binding result

>  <binder>
humanized penta-specific antibody construct H0M0 (antibody, human IgG1, kappa, V domains shown, H0 mature heavy chain with M0 mature light chain) VH: QVQLVQSGAEVKKPGASVKVSCKASGYTFTNYWIVWVRQAPGQGLEWMGDLYSGGGYTFYSENFKGRVTMTRDTSTSTVYMELSSLRSEDTAVYYCARSGYDRTWFAHWGQGTLVTVSS VL: EIVLTQSPATLSLSPGERATLSCQASQDIESYLSWYQQKPGQAPRLLIYYATRLADGIPARFSGSGSGTDFTLTISSLEPEDFAVYYCLQHGESPPTFGQGTKLEIKR

>  <endpoint>
binding result

>  <result>
binds

$$$$
>  <binder>
humanized penta-specific antibody construct H0L10 (antibody, human IgG1, kappa, V domains shown, H0 mature heavy chain with L10 mature light chain) VH: QVQLVQSGAEVKKPGASVKVSCKASGYTFTNYWIVWVRQAPGQGLEWMGDLYSGGGYTFYSENFKGRVTMTRDTSTSTVYMELSSLRSEDTAVYYCARSGYDRTWFAHWGQGTLVTVSS VL: DIQMTQSPSSLSASVGDRVTITCQASQDIESYLSWYQQKPGKAPKLLIYYATRLADGVPSRFSGSGSGQDYTLTISSLQPEDFATYYCLQHGESPPTFGQGTKLEIKR

>  <endpoint>
binding result

>  <result>
binds

$$$$
>  <binder>
humanized penta-specific antibody construct H0L8 (antibody, human IgG1, kappa, V domains shown, H0 mature heavy chain with L8 mature light chain) VH: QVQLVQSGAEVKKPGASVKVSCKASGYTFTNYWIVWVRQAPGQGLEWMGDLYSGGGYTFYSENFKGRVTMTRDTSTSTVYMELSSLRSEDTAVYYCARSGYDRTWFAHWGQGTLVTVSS VL: DIQMTQSPSSLSASVGDRVTITCQASQDIESYLSWYQQKPGKAPKLLIYYATRLADGVPSRFSGSGSGTDFTFTISSLQPEDIATYYCLQHGESPPTFGQGTKLEIKR

>  <endpoint>
binding result

>  <result>
binds

$$$$
>  <binder>
humanized penta-specific antibody construct H0L7 (antibody, human IgG1, kappa, V domains shown, H0 mature heavy chain with L7 mature light chain) VH: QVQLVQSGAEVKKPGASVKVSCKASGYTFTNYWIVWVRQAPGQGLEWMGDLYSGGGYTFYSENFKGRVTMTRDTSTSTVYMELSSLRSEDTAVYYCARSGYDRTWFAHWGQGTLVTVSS VL: DIQMTQSPSSLSASVGDRVTITCQASQDIESYLSWYQQKPGKAPKLLIYYATRLADGVPSRFSGSGSGTDFTLTISSLQPEDFATYYCLQHGESPPTFGQGTKLEIKR

>  <endpoint>
binding result

>  <result>
binds

$$$$
